- Tested on: Escherichia coli TOP10;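 also: peptides expressed intracellularly from a pBAD plasmid library in pooled LB shake-flask culture, induced with 0.3% L-arabinose, DNA abundance read by NGS, three biological replicates, DESeq2 with apeglm shrinkage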
- assay: shrunken log2 fold change of peptide-encoding DNA abundance (4.5 h post-induction vs induction); higher = less antimicrobial activity (less host growth inhibition)
- conditions used: time post-induction: 4.5 h; library: site-saturation at positions 5, 18, 19, 20
# shrunken log2 fold change per record follows
measure name: shrunken log2 fold change

sequence chain | reported
RRIRTRPPRLPRPRPRPEWIPRP | 0.0842
RRIRARPPRLPRPRPRPVVRPRP | 0.481
RRIRQRPPRLPRPRPRPFVNPRP | -0.545
RRIRKRPPRLPRPRPRPHCLPRP | -0.0309
RRIRVRPPRLPRPRPRPMDVPRP | 0.0265
RRIRWRPPRLPRPRPRPYRGPRP | -0.0785
RRIRKRPPRLPRPRPRPHIYPRP | -0.175
RRIRWRPPRLPRPRPRPGTHPRP | 0.158
RRIRCRPPRLPRPRPRPKYPPRP | -0.196

// provenance: the supplement of paper PMC9112550
